test: Tested for plasma level after 90 min of 10 mg/kg dose administered in mice; assay type: ADME, organism-based; parameters: dose 10 mg/kg; details: mouse, read-out: Activity
measurement_name: concentration at 1.5 h (ng/mL)

Consider the worked cases shown below.
compound	concentration at 1.5 h [ng/mL]
Cc1ccc(-n2nc(C(C)(C)C)cc2NC(=O)Nc2ccc(OCCN3CCOCC3)c3ccccc23)cc1 [DORAMAPIMOD]	30000
CC(C)(C)c1cc(NC(=O)Nc2ccc(OCCN3CCOCC3)c3ccccc23)n(-c2ccccc2)n1	5400
CC(C)(C)c1cc(NC(=O)Nc2ccc(OCCN3CCOCC3)c3ccccc23)n(-c2cccc(N)c2)n1	1400

[I] Cc1ccc(-n2nc(C(C)(C)C)cc2NC(=O)Nc2ccc(OCCN3CCOCC3)c3ccccc23)cn1
[II] Cc1ccc(-n2nc(C(C)(C)C)cc2NC(=O)Nc2ccc(OCCN3C[C@H](C)O[C@@H](C)C3)c3ccccc23)cc1
stdin: Look at I and II . Which one has the lower recorded concentration at 1.5 h number? Output the label that corresponds to your choice.
stdout: II
(II: 4200 ng/mL, I: 13000 ng/mL)
